Data origin, for the record: patent US9493455B2

tested-system: EGFR (ErbB1) (Homo sapiens, UniProt P00533)
Construct: purchased Invitrogen
Sequence (P00533 25-1210): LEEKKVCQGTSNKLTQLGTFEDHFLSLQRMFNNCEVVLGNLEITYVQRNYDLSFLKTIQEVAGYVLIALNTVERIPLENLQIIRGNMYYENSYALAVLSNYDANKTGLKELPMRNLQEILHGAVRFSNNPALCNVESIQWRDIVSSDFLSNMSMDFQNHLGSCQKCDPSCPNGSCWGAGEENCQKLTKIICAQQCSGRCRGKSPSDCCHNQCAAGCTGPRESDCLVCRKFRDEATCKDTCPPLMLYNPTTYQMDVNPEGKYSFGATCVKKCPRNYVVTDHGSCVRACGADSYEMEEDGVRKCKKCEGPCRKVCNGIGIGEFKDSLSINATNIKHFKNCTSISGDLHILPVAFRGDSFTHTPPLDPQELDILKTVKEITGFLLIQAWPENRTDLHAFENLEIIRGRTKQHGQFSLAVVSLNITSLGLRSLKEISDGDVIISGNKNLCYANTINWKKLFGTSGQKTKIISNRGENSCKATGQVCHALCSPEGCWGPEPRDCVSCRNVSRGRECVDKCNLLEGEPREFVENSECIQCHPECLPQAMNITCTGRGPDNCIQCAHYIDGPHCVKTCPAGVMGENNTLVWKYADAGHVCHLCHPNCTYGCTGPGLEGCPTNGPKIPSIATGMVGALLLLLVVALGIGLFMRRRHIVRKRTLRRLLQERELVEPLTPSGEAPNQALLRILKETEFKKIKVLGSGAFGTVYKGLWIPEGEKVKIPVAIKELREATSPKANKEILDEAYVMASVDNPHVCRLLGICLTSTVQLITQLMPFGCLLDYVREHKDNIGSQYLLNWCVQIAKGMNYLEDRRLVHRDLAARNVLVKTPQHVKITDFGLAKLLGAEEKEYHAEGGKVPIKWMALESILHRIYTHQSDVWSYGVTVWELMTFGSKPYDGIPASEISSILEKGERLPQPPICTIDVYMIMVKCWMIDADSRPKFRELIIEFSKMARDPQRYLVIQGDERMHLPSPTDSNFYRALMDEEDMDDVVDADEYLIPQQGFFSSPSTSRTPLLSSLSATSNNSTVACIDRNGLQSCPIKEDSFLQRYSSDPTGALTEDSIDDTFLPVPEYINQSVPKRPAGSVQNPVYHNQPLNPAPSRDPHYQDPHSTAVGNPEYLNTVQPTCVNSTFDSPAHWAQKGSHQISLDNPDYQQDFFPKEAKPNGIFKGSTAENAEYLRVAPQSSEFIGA
test: In vitro kinase assay (Z′-LYTE)
Type: biochemical
experimental-context: read-out: % of inhibition of the kinase compared to the control
Task for the reader: assign each of the following compounds its reported inhibition at 0.1 µM.

q: // inhibition at 0.1 µM lookup, key: COC(=O)c1cc2cc(NCc3cc(NS(=O)(=O)c4cccc(C(F)(F)F)c4)ccc3C)cnc2[nH]1 [OR0882]
a: < 50%

q: What do you get for COC(=O)c1cc2cc(NCc3cc(NC(=O)Nc4cccc(C(F)(F)F)c4)ccc3C)cnc2[nH]1 [OR0603] ?
a: < 50%

q: What do you get for COC(=O)c1cc2cc(NCc3cc(NC(=O)c4ccc(CN5CCN(C)CC5)c(C(F)(F)F)c4)ccc3Cl)cnc2[nH]1 [OR0621] ?
a: < 50%

q: What do you get for COC(=O)c1cc2cc(NCc3cccc(C(=O)NCc4cccc(C(F)(F)F)c4)c3)cnc2[nH]1 [OR1004] ?
a: < 50%

q: What do you get for COC(=O)c1cc2cc(NCc3cc(NC(=O)Cc4ccccc4Br)ccc3C)cnc2[nH]1 [OR0599] ?
a: < 50%

q: What do you get for COC(=O)c1cc2cc(NCc3cc(NC(=O)c4ccc(CN5CCNCC5)c(C(F)(F)F)c4)ccc3C)cnc2[nH]1 [OR0613] ?
a: ≥ 50%

q: What do you get for COC(=O)c1cc2cc(NCc3cc(NC(=O)c4cc(N5CCN(C)CC5)cc(C(F)(F)F)c4)ccc3C)cnc2[nH]1 [OR0698] ?
a: ≥ 50%
